# tested.on: thrombin (alpha-thrombin) (Homo sapiens, UniProt P00734;P00734 P00734:315-363,P00734:364-622)
# test.summary: filter
property.label: pKd
Bear in mind: pKd is minus log10 of a mol/L concentration; give just that figure.

Task item: Record request: pKd value, item ACTGCCTAGGTTGGGTAGGGTGGTGGCAGT (ssDNA, PS linkage between nt 22 and 23) [ARC2665]
Reply: 9.92

Task item: Record request: pKd value, item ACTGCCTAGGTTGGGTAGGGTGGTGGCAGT (ssDNA, PS linkage between nt 28 and 29) [ARC2671]
Reply: 9.80

Task item: Record request: pKd value, item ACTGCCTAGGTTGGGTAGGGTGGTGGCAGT (XNA, 2'-OMe C6, rest DNA) [ARC2618]
Reply: 9.92

Task item: Record request: pKd value, item GCCTAGGTTGGGTAGGGTGGTGGC (XNA, 2'-OMe 1-3,22,24, rest DNA) [ARC2845]
Reply: 9.07

Provenance of the data: patent US20090221680
